Ref: ChEMBL document CHEMBL2046376

Test system: Staphylococcus aureus
Assay: Antibacterial activity against hospital-acquired methicillin-sensitive Staphylococcus aureus 446/11 after 18 hrs by twofold serial agar dilution technique
Assay type: functional
Conditions: 446/11, 18 h
test readout: MIC (µg/mL)
One number for each entry, in µg/mL.

Worked examples, 3 compounds total:
CC[C@@H](C(=O)[C@@H](C)[C@@H](O)[C@H](C)[C@@H]1O[C@@H]([C@@H](CC)C(=O)NCCCN2CCCCC2)CC[C@@H]1C)[C@H]1O[C@]2(C=C[C@@H](O)[C@]3(CC[C@@](C)([C@H]4CC[C@](O)(CC)[C@H](C)O4)O3)O2)[C@H](C)C[C@@H]1C    64
CC[C@@H](C(=O)[C@@H](C)[C@@H](O)[C@H](C)[C@@H]1O[C@@H]([C@@H](CC)C(=O)Nc2ccccc2)CC[C@@H]1C)[C@H]1O[C@]2(C=C[C@@H](O)[C@]3(CC[C@@](C)([C@H]4CC[C@](O)(CC)[C@H](C)O4)O3)O2)[C@H](C)C[C@@H]1C    2
CC[C@@H](C(=O)[C@@H](C)[C@@H](O)[C@H](C)[C@@H]1O[C@@H]([C@@H](CC)C(=O)O)CC[C@@H]1C)[C@H]1O[C@]2(C=C[C@@H](O)[C@]3(CC[C@@](C)([C@H]4CC[C@](O)(CC)[C@H](C)O4)O3)O2)[C@H](C)C[C@@H]1C    1

As a next step, examine the compound that follows.
[in] I would be grateful if you could share the reported MIC for "CC[C@@]1([C@@H]2O[C@@H]([C@H]3O[C@@](O)(CO)[C@H](C)C[C@@H]3C)C[C@@H]2C)CC[C@H]([C@]2(C)CC[C@]3(C[C@H](O)[C@@H](C)[C@@H]([C@@H](C)[C@@H](OC)[C@H](C)C(=O)O)O3)O2)O1" .
[out] 2

###

Tested on: Staphylococcus aureus
Assay: Antibacterial activity against Staphylococcus aureus ATCC 29213 after 18 hrs by twofold serial agar dilution technique
Assay type: functional
Settings: ATCC 29213, 18 h
test readout: MIC

Worked examples, 3 molecules total:
CC[C@@H](C(=O)[C@@H](C)[C@@H](O)[C@H](C)[C@@H]1O[C@@H]([C@@H](CC)C(=O)NCCc2c[nH]c3ccccc23)CC[C@@H]1C)[C@H]1O[C@]2(C=C[C@@H](O)[C@]3(CC[C@@](C)([C@H]4CC[C@](O)(CC)[C@H](C)O4)O3)O2)[C@H](C)C[C@@H]1C    ≥ 256 µg/mL
CC[C@@H](C(=O)[C@@H](C)[C@@H](O)[C@H](C)[C@@H]1O[C@@H]([C@@H](CC)C(=O)NCCOCCOCCOC)CC[C@@H]1C)[C@H]1O[C@]2(C=C[C@@H](O)[C@]3(CC[C@@](C)([C@H]4CC[C@](O)(CC)[C@H](C)O4)O3)O2)[C@H](C)C[C@@H]1C    ≥ 256 µg/mL
O=C(O)c1cn(C2CC2)c2cc(N3CCNCC3)c(F)cc2c1=O    0.25 µg/mL

[in] I would be grateful if you could share the reported MIC for "CC[C@@H](C(=O)[C@@H](C)[C@@H](O)[C@H](C)[C@@H]1O[C@@H]([C@@H](CC)C(=O)NCc2ccccc2)CC[C@@H]1C)[C@H]1O[C@]2(C=C[C@@H](O)[C@]3(CC[C@@](C)([C@H]4CC[C@](O)(CC)[C@H](C)O4)O3)O2)[C@H](C)C[C@@H]1C" .
[out] ≥ 256 µg/mL
